# TARGET_DESC: Troponin I, cardiac muscle (Homo sapiens) + Troponin T, cardiac muscle (Homo sapiens) + Troponin C, slow skeletal and cardiac muscles (Homo sapiens) (UniProt P19429+P45379+P63316)
# ASSAY_NAME: cardiac RTF calcium sensitivity activators, confirmation, biochemical, IANBD-TnC fluorescence, triplicate (AID 504383);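 also: 0% = DMSO at 0.472 mM calcium and 100% = DMSO at 2.9 mM calcium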
# CONDITION_SUMMARY: IANBD-labeled cardiac RTF, Ca2+ sensitivity fluorescence; at 7.2 µM; scaled from EC20 to saturating calcium; tested at EC20 calcium, 0.472 mM
The campaign covered roughly 2,500 compounds. About 1,200 (48%) were called active.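 The calls were made as follows: active = mean activation above the low control average plus 3 SD, as set in the primary screen (cut at about 12% in these data); inactive = the rest.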 The set was probably picked from earlier hits. The list shows a part of the results.
Classes used: active, inactive

# COMPOUND_STRUCTURE, GROUP
rows = [
    ("CCN1C(=O)/C(=C/c2ccc(N3CCCC3)cc2)NC1=S", "inactive"),
    ("COc1ccc(/C=C/C=C2\\N=C(SC)SC2=O)cc1", "inactive"),
    ("CN1C/C(=C\\c2ccc(N3CCOCC3)cc2)C(=O)/C(=C/c2ccc(N3CCOCC3)cc2)C1", "active"),
    ("CCCN1C(=O)/C(=C/c2ccc(N3CCOCC3)cc2)NC1=S", "active"),
    ("CCN1C/C(=C/c2ccc(N3CCOCC3)cc2)C(=O)/C(=C/c2ccc(N3CCOCC3)cc2)C1", "inactive"),
]

* * *

# TARGET_DESC: Troponin I, cardiac muscle (Homo sapiens) + Troponin T, cardiac muscle (Homo sapiens) + Troponin C, slow skeletal and cardiac muscles (Homo sapiens) (UniProt P19429+P45379+P63316)
# ASSAY_NAME: cardiac RTF calcium sensitivity activators, confirmation, biochemical, IANBD-TnC fluorescence, triplicate (AID 504383);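 also: 0% = DMSO at 0.472 mM calcium and 100% = DMSO at 2.9 mM calcium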
# CONDITION_SUMMARY: IANBD-labeled cardiac RTF, Ca2+ sensitivity fluorescence; at 7.2 µM; hits give high values; scaled from EC20 to saturating calcium; tested at EC20 calcium, 0.472 mM
Screen size: about 2,500 compounds; about 1,200 (48%) were called active. The set was probably picked from earlier hits. This is one part of the list.
# cutoff 10% applies to activation; >= gives met, < gives not met

# COMPOUND, GROUP
rows = [
    ("O=S(=O)([N-]c1nc2ccccc2nc1-[n+]1ccc(-c2ccncc2)cc1)c1ccccc1", "not met"),
    ("CCN1CC=C2C(C#N)=C(N)C(C#N)(C#N)C(CCc3ccccc3)C2C1 (stereo not given)", "met"),
    ("Cc1ccc(CCC(=O)Nc2cc(Cl)ccc2Cl)o1", "not met"),
    ("CN1CC=C2C(C#N)=C(N)C(C#N)(C#N)C(Cc3ccccc3)C2C1 (stereo not given)", "met"),
    ("Cc1oc(-c2ccccc2Cl)nc1CSc1nc2c(c(=O)[nH]1)CCC2", "not met"),
    ("CN1CC=C2C(C#N)=C(N)C(C#N)(C#N)C(CCc3ccccc3)C2C1 (stereo not given)", "met"),
    ("Cc1ccc[n+](-c2nc3ccccc3nc2[N-]S(=O)(=O)c2ccccc2)c1", "met"),
    ("N#CC1=C(N)SC(N)=C(C#N)C1CCc1ccccc1", "not met"),
    ("N#C/C(=C\\c1coc2ccc(O)cc2c1=O)C(=O)Nc1nc2ccccc2s1", "met"),
]

* * *

# TARGET_DESC: Troponin I, cardiac muscle (Homo sapiens) + Troponin T, cardiac muscle (Homo sapiens) + Troponin C, slow skeletal and cardiac muscles (Homo sapiens) (UniProt P19429+P45379+P63316)
# ASSAY_NAME: cardiac RTF calcium sensitivity activators, confirmation, biochemical, IANBD-TnC fluorescence, triplicate (AID 504383);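 also: 0% = DMSO at 0.472 mM calcium and 100% = DMSO at 2.9 mM calcium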
# CONDITION_SUMMARY: IANBD-labeled cardiac RTF, Ca2+ sensitivity fluorescence; at 7.2 µM; hits give high values; scaled from EC20 to saturating calcium; tested at EC20 calcium, 0.472 mM
Screen size: about 2,500 compounds; about 1,200 (48%) were called active. So high a share suggests a set chosen from earlier hits. The list shows a part of the results.

# COMPOUND, activation
data = [
    ("CCC(c1nnnn1C1CCCCC1)N1CCN(C(=O)c2ccco2)CC1 (stereo unspecified)", "23.4% (active)"),
    ("COc1ccc(NC(=O)CCN2CC(C)OC(C)C2)c(OC)c1 (stereo unspecified)", "4.53% (inactive)"),
    ("Cc1noc(C)c1S(=O)(=O)N(C)C[C@H]1Oc2ccc(NC(=O)CCC(F)(F)F)cc2C(=O)N([C@H](C)CO)C[C@@H]1C", "10.2% (inactive)"),
    ("C[C@H]1CN([C@@H](C)CO)C(=O)Cc2cc(NC(=O)CCC(F)(F)F)ccc2O[C@H]1CN(C)S(C)(=O)=O", "15.4% (active)"),
    ("O=C(NC1CCCCC1)c1cccc2c1C(=O)c1ccc(N3CCC(Cc4ccccc4)CC3)cc1S2(=O)=O", "5.3% (inactive)"),
    ("O=C(NCc1ccc(OC(F)(F)F)cc1)c1cccc2c1C(=O)c1ccc(N3CCCCC3)cc1S2(=O)=O", "17.5% (active)"),
    ("O=C(NC1CCCCC1)c1cccc2c1C(=O)c1ccc(N3CCCC3)cc1S2(=O)=O", "87.8% (active)"),
    ("N#C/C(=C(/O)COC(=O)COc1ccc(Cl)cc1)c1nc2ccccc2[nH]1", "13.2% (active)"),
    ("CCN(CC)CCCC(C)n1c2nc(=O)[nH]c(=O)c-2nc2cc(Cl)ccc21 (stereo unspecified)", "7.49% (inactive)"),
    ("O=C(NCC1CC1)c1cccc2c1C(=O)c1ccc(N3CCCC3)cc1S2(=O)=O", "183% (active)"),
    ("C=CCNc1nnc(SCC(=O)N2CCC(C(N)=O)CC2)s1", "15.8% (active)"),
    ("CCc1ccccc1NC(=S)NCc1cccn1C", "9.11% (inactive)"),
    ("COc1ccc(C(=O)Nc2cc(C(C)=O)c(/C=C/N(C)C)oc2=O)cc1", "30.3% (active)"),
    ("CCC(C)(C)n1nnnc1C(c1ccc(C)cc1)N1CCN(C(=O)c2ccco2)CC1 (stereo unspecified)", "4.34% (inactive)"),
    ("CCCN(CCC)CC(O)Cn1cc(/C=C/C(=O)c2cccs2)c2ccccc21 (stereo unspecified)", "11.6% (inactive)"),
    ("COC(=O)c1cc2c(=O)c3ccccc3oc2nc1/C=C/N(C)C", "5.31% (inactive)"),
    ("CNC(=O)N(O)C1N(C)C(=O)N(CC(=O)OC)C1(C)C (stereo unspecified)", "55.3% (active)"),
    ("CC(=O)c1cc(NC(=O)c2ccc(Cl)cc2)c(=O)oc1/C=C/N(C)C", "5.44% (inactive)"),
    ("CC(=O)c1cc(NC(=O)c2ccccc2)c(=O)oc1/C=C/N(C)C", "11.2% (inactive)"),
    ("COc1ccc(NC(=O)CCN2CCCC2)c(OC)c1", "80.7% (active)"),
    ("CC(=O)c1cc(NC(=O)c2ccc(C)cc2)c(=O)oc1/C=C/N(C)C", "54.1% (active)"),
]
